Field: Biodistribution Parotid gland. Provide a value for each of the compounds that follow.
# Tested on: LNCaP tumor xenograft-bearing CB17-SCID mice
# Type: in vivo, mouse
# RUN_CONDITIONS: 24 h p.i.

// query Give Biodistribution Parotid gland (LNCaP tumor xenograft-bearing CB17-SCID mice) of the following compound: CC(C)(C)[Si](F)(c1ccc(C(=O)NC[C@@H](NC(=O)CN2CCN(CC(=O)[O-])CCN(CC(=O)[O-])CCN(CC(=O)[O-])CC2)C(=O)N[C@H](CCCCNC(=O)CCC(=O)NCCC[C@@H](NC(=O)CC[C@H](NC(=O)N[C@@H](CCc2nnn[nH]2)C(=O)O)C(=O)O)C(=O)O)C(=O)O)cc1)C(C)(C)C.[Lu+3] [^natLu/[^177Lu]Lu-11]
// result 0.06 ± 0.02 % ID/g

// query Give Biodistribution Parotid gland (LNCaP tumor xenograft-bearing CB17-SCID mice) of the following compound: CCCCCCC(NC(=O)C(CCC(=O)O)NC(=O)NC(CCC(=O)NC(CCCNC(=O)CCC(=O)NCCCCC(NC(=O)C(CNC(=O)c1ccc([Si](F)(C(C)(C)C)C(C)(C)C)cc1)NC(=O)CN1CCN(CC(=O)[O-])CCN(CC(=O)[O-])CCN(CC(=O)[O-])CC1)C(=O)O)C(=O)O)C(=O)O)C(=O)O.[Lu+3] (centres unmarked) [^natLu/[^177Lu]Lu-7]
// result 0.06 ± 0.01 % ID/g

// query Give Biodistribution Parotid gland (LNCaP tumor xenograft-bearing CB17-SCID mice) of the following compound: CSCC[C@H](NC(=O)CC[C@H](NC(=O)N[C@@H](CCC(=O)N[C@H](CCCNC(=O)CCC(=O)NCCCC[C@@H](NC(=O)[C@@H](CNC(=O)c1ccc([Si](F)(C(C)(C)C)C(C)(C)C)cc1)NC(=O)CN1CCN(CC(=O)[O-])CCN(CC(=O)[O-])CCN(CC(=O)[O-])CC1)C(=O)O)C(=O)O)C(=O)O)C(=O)O)C(=O)O.[Lu+3] [^natLu/[^177Lu]Lu-5]
// result 0.02 ± 0.00 % ID/g

// query Give Biodistribution Parotid gland (LNCaP tumor xenograft-bearing CB17-SCID mice) of the following compound: C#CC[C@H](NC(=O)N[C@@H](CCC(=O)N[C@H](CCCNC(=O)CCC(=O)NCCCC[C@@H](NC(=O)[C@@H](CNC(=O)c1ccc([Si](F)(C(C)(C)C)C(C)(C)C)cc1)NC(=O)CN1CCN(CC(=O)[O-])CCN(CC(=O)[O-])CCN(CC(=O)[O-])CC1)C(=O)O)C(=O)O)C(=O)O)C(=O)O.[Lu+3] [^natLu/[^177Lu]Lu-10]
// result 0.02 ± 0.00 % ID/g

// query Give Biodistribution Parotid gland (LNCaP tumor xenograft-bearing CB17-SCID mice) of the following compound: CC(C)(C)[Si](F)(c1ccc(C(=O)NC[C@@H](NC(=O)CN2CCN(CC(=O)[O-])CCN(CC(=O)[O-])CCN(CC(=O)[O-])CC2)C(=O)N[C@H](CCCCNC(=O)CCC(=O)NCCC[C@@H](NC(=O)CC[C@H](NC(=O)O[C@@H](CCC(=O)O)C(=O)O)C(=O)O)C(=O)O)C(=O)O)cc1)C(C)(C)C.[Lu+3] [^natLu/[^177Lu]Lu-3]
// result 0.04 ± 0.02 % ID/g
